The reported numbers originate from ChEMBL document CHEMBL1142170.

# TEST_PROTOCOL: Inhibition of HCV NS5B RNA polymerase S282T mutant assessed as incorporation of 32P-UMP into RNA
# Set-up: species or system Hepacivirus hominis
ASSAY_METRIC: Ki (µM)
Answers are plain numbers, in µM.

Illustrative cases are given below, each with its answer.
> print(dat)
                                   compound  meas.value
1  C[C@@]1(O)[C@H](O)[C@@H](COP(=O)(O)OP(=O)(O)OP(=O)(O)O)O[C@H]1n1cnc2c(N)ncnc21        21.8
2  C[C@@]1(O)[C@H](O)[C@@H](COP(=O)(O)OP(=O)(O)OP(=O)(O)O)O[C@H]1n1ccc(N)nc1=O [2'-C-METHYLCYTIDINE TRIPHOSPHATE]         3.8

Continue with the compound presented below.
Find the recorded Ki belonging to C[C@@]1(F)[C@H](O)[C@@H](COP(=O)(O)OP(=O)(O)OP(=O)(O)O)O[C@H]1n1ccc(N)nc1=O [PSI-6130-TP] and report it. 2.5
